target: lysine-acetylated H4 peptide; test: NMR titration of wild-type and mutant P/CAF bromodomain proteins with the H4 AcK peptide; assay type: binding; conditions: estimated from amide chemical shift changes in 15N-HSQC vs ligand concentration; read-out: H4 AcK-Peptide Binding KD
Record form. Attribute: Kd. Fill in for each entry.

Input line: Tell me Kd reported for Val752Ala (protein) SKEPRDPDQLYSTLKSILQQVKSHQSAWPFMEPAKRTEAPGYYEVIRFPMDLKTMSERLKNRYYVSKKLFMADLQRVFTNCKEYNAAESEYYKCANILEKFFFSKIKEAGLIDK
Output line: > 10 mM

Input line: Tell me Kd reported for Wild-Type: wild-type bromodomain of P/CAF (residues 719-832 of SEQ ID NO:2) (protein, listed as Homo sapiens) SKEPRDPDQLYSTLKSILQQVKSHQSAWPFMEPVKRTEAPGYYEVIRFPMDLKTMSERLKNRYYVSKKLFMADLQRVFTNCKEYNAAESEYYKCANILEKFFFSKIKEAGLIDK
Output line: 0.346 mM

Input line: Tell me Kd reported for Tyr802Ala: P/CAF bromodomain point mutant, Tyr802 to Ala (protein) SKEPRDPDQLYSTLKSILQQVKSHQSAWPFMEPVKRTEAPGYYEVIRFPMDLKTMSERLKNRYYVSKKLFMADLQRVFTNCKEANAAESEYYKCANILEKFFFSKIKEAGLIDK
Output line: > 10 mM

Input line: Tell me Kd reported for Tyr760Ala: P/CAF bromodomain point mutant, Tyr760 to Ala (protein) SKEPRDPDQLYSTLKSILQQVKSHQSAWPFMEPVKRTEAPGAYEVIRFPMDLKTMSERLKNRYYVSKKLFMADLQRVFTNCKEYNAAESEYYKCANILEKFFFSKIKEAGLIDK
Output line: > 10 mM
